target: recombinant full-length human hydroxyacid oxidase 1 (HAO1), the equivalent of hGOX (Homo sapiens (Human), UniProt Q9UJM8); assay: In-vitro human glycolate oxidase (hGOX) assay (Amplex red/HRP fluorescence); type: biochemical
Sequence (Q9UJM8 whole entry): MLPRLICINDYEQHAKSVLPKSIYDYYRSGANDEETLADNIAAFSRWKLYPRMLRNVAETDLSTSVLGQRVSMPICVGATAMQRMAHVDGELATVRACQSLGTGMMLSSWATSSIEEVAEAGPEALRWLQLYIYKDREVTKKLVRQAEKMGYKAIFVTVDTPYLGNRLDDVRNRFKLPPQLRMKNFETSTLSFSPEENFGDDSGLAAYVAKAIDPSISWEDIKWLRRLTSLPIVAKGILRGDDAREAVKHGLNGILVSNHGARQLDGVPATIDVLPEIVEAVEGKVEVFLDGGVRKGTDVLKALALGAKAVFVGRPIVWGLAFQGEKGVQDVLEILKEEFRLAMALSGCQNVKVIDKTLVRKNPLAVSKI
pIC50: −log10 of the molar value.
attribute_measured: pIC50

The examples below pair each entry with its known result.
{"compound_string": "O=C(O)c1nn[nH]c1Oc1ccc2ccccc2c1", "pIC50": 7.30}
{"compound_string": "COc1cccc(-c2ccc(Oc3[nH]nnc3C(=O)O)cc2)c1", "pIC50": 8.10}
{"compound_string": "CC(C)Cc1ccc(Oc2[nH]nnc2C(=O)O)cc1", "pIC50": 7.48}
{"compound_string": "O=C(O)c1nn[nH]c1Oc1cccc(-c2cccc(Cl)c2)c1", "pIC50": 8.05}
{"compound_string": "COc1ccc(-c2ccc(Oc3[nH]nnc3C(=O)O)cc2)cc1OC", "pIC50": 7.89}
{"compound_string": "Cc1ccc(-c2cccc(Oc3[nH]nnc3C(=O)O)c2)cc1", "pIC50": 7.89}
{"compound_string": "CCC(CC)c1cccc(Oc2[nH]nnc2C(=O)O)c1", "pIC50": 7.64}
{"compound_string": "O=C(O)c1nn[nH]c1Oc1ccc(S(F)(F)(F)(F)F)cc1", "pIC50": 7.30}
{"compound_string": "O=C(O)c1nn[nH]c1Sc1ccc(-c2ccccc2)cc1", "pIC50": 6.64}
{"compound_string": "Cc1ccc(-c2ccc(Sc3[nH]nnc3C(=O)O)cc2)cc1", "pIC50": 7.39}

a. O=C(O)c1nn[nH]c1Oc1cccc(-c2ccccc2F)c1
b. O=C(O)c1nn[nH]c1Oc1cccc(C2CCC2)c1
Min pIC50? a | b Let me know the label of the one you choose.
b

I. O=C(O)c1nn[nH]c1Oc1cccc(-c2ccncc2)c1
II. Cc1cc(Oc2[nH]nnc2C(=O)O)ccc1Br
Min pIC50? I | II Let me know the label of the one you choose.
II
(II: 7.47, I: 7.68)

These measurements were taken from patent US11389456B2.
